Measured IC50, HRG1-β1 induced pERK1/2, MCF-7 accompanies every entry in the list below.
- ASSAYED_TARGET: hHER3 full length (human, UniProt P21860 20-1342)
- ASSAY_DETAILS: cell-based or functional assay
Please state the figure in M; there is no need to write the unit.

Below are worked cases with known answers.
BINDER | IC50, HRG1-β1 induced pERK1/2, MCF-7 (M)
17E08 (VHH) VHH: EVQLVESGGGLVQPGGSLRLSCSASGSIFGLNAMGWYRQTPGKERELVAGITSITRVGSTRYADSAKGRFTISGDYAKNTVYLQMNSLKPEDTGVYYCRMSIVKSGGADYWGQGTQVTVSS | 2.78e-09
21F06 (VHH, c-myc, His6-tagged form as expressed; also called 21F6; HER3MS21F06) VHH: EVQLVESGGGLVQAGGSLRLSCAASGRTYYLNAMGWFRQGPGKDREFVAAIDWSDGNKDYADSVKGRFTISRDNAKNTVYLQMNSLKPEDTAVYYCAADTPPWGPMIYIESYDSWGQGTQVTVSS | 1.11e-07

Proceed to the following item.
Query: I am curious: what IC50, HRG1-β1 induced pERK1/2, MCF-7 value has been reported for 04C07 (VHH, also called HER3MS04C07; HER3MS004C07) VHH: EVQLVESGGGLVQAGGSLRLSCAASGFTFSSYPMSWVRQAPGKGPAWVSTVSPGGITTSYADSVKGRFTISRDNAKNTLYLQMNSLKPEDTAVYYCLRDLNNRGQGTQVTVSS ?
Response: 2.79e-08
